target: HLA-A*0301 (human); assay: competition with 125I-labelled probe peptide on purified soluble HLA
Below, each entry is listed with its recorded IC50.
Give just the numeric value; nM need not be written.

Would you kindly share the measured IC50 for RVCEKMALY (modifications not checked) ?
53

Same again, this time with RVFTEAMTR (modifications not checked)
45
